Below, each entry is listed with its recorded shrunken log2 fold change.
Tested on: Escherichia coli TOP10;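 further: peptides expressed intracellularly from a pBAD plasmid library in pooled LB shake-flask culture, induced with 0.3% L-arabinose, DNA abundance read by NGS, three biological replicates, DESeq2 with apeglm shrinkage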
Experiment Notes: shrunken log2 fold change of peptide-encoding DNA abundance (4.5 h post-induction vs induction); higher = less antimicrobial activity (less host growth inhibition)
Study Conditions: time post-induction: 4.5 h; library: site-saturation at positions 5, 18, 19, 20

Task: Fill in the blank: the reported shrunken log2 fold change of "RRIRNRPPRLPRPRPRPGLVPRP" is ____.
Output: 0.171

Task: Fill in the blank: the reported shrunken log2 fold change of "RRIRGRPPRLPRPRPRPPDAPRP" is ____.
Output: 1.45

Task: Fill in the blank: the reported shrunken log2 fold change of "RRIRDRPPRLPRPRPRPDLFPRP" is ____.
Output: 0.0296

Task: Fill in the blank: the reported shrunken log2 fold change of "RRIRDRPPRLPRPRPRPNPHPRP" is ____.
Output: -0.247

Task: Fill in the blank: the reported shrunken log2 fold change of "RRIRVRPPRLPRPRPRPEYYPRP" is ____.
Output: 0.0358

Task: Fill in the blank: the reported shrunken log2 fold change of "RRIRHRPPRLPRPRPRPHDPPRP" is ____.
Output: -0.613

Task: Fill in the blank: the reported shrunken log2 fold change of "RRIRARPPRLPRPRPRPVTRPRP" is ____.
Output: 0.35

Task: Fill in the blank: the reported shrunken log2 fold change of "RRIRNRPPRLPRPRPRPNAIPRP" is ____.
Output: -0.0211

Task: Fill in the blank: the reported shrunken log2 fold change of "RRIRRRPPRLPRPRPRPDLMPRP" is ____.
Output: 2.63

Task: Fill in the blank: the reported shrunken log2 fold change of "RRIRQRPPRLPRPRPRPSDMPRP" is ____.
Output: 0.0447

Task: Fill in the blank: the reported shrunken log2 fold change of "RRIRDRPPRLPRPRPRPWIDPRP" is ____.
Output: 0.151

Task: Fill in the blank: the reported shrunken log2 fold change of "RRIRPRPPRLPRPRPRPFVVPRP" is ____.
Output: -0.233

Task: Fill in the blank: the reported shrunken log2 fold change of "RRIRMRPPRLPRPRPRPICMPRP" is ____.
Output: 0.024

Task: Fill in the blank: the reported shrunken log2 fold change of "RRIRNRPPRLPRPRPRPQYNPRP" is ____.
Output: -0.674

Task: Fill in the blank: the reported shrunken log2 fold change of "RRIRSRPPRLPRPRPRPAELPRP" is ____.
Output: 0.0682

Task: Fill in the blank: the reported shrunken log2 fold change of "RRIRERPPRLPRPRPRPLTRPRP" is ____.
Output: 0.167

Task: Fill in the blank: the reported shrunken log2 fold change of "RRIRVRPPRLPRPRPRPVWAPRP" is ____.
Output: 0.394

Task: Fill in the blank: the reported shrunken log2 fold change of "RRIRMRPPRLPRPRPRPKDPPRP" is ____.
Output: 0.438

Task: Fill in the blank: the reported shrunken log2 fold change of "RRIRGRPPRLPRPRPRPMMQPRP" is ____.
Output: 1
